biological target: Bcl-xL ΔTM (Bcl-xL deletion mutant lacking the transmembrane domain) (human); test: DELFIA displacement assay
pIC50: −log10 of the molar value. Non-standard residues stand in square brackets, D forms with d. code λ = not defined here
readout name: pIC50

binder | pIC50
Ac-[code h]ATQLRRFGDKLNFRQKLLN-NH2 [homo_hNOXA (Ac-h…-NH2)] | < 6.00

I am curious: what pIC50 value has been reported for Ac-[code λ]ATQLRRFGDKLNFRQKLLN-NH2 (reading uncertain) [λ_hNOXA (Ac-λ…-NH2)] ? < 6.00
